Readings of GI50 for the listed compounds
test system: DU-145; assay: NCI tumour cell line growth inhibition, 48 h
Active and inactive are the calls of the source. Cut-off read from the data, not from the text of the source: active = GI50 up to about 1.1 µM and inactive = higher.

| compound | GI50 |
| --- | --- |
| CCCCc1ccc(-n2c(C)c(COC(=O)NC)c(COC(=O)NC)c2C)cc1 | 6.98 µM (inactive) |
| NC(Cc1ccccc1CP(=O)(O)O)C(=O)O (stereo not given) | > 100 µM (inactive) |
| COC1CC(OC2CCC3(C)C(CCC45CCC(C6=CC(=O)OC6)C(C)(CCC43)C5=O)C2)OC(C)C1O (stereo not given) | 15.9 µM (inactive) |
| COc1ccc(NC(=O)c2cc(NC(=O)/C=C/c3ccccc3)c(OC)c(OC)c2)cc1 | 16.3 µM (inactive) |
| CCCC(=O)NC(Nc1ccc(S(=O)(=O)Nc2cc(C)on2)cc1)(C(=O)OCC)C(F)(F)F (stereo not given) | > 100 µM (inactive) |
